organism: Rattus norvegicus; experiment: Open TG-GATES - Regimen: Single; format: toxicity, organism-based, Sprague-Dawley; parameters: regimen Single, gender Male, age 6 weeks; conditions: in vivo, po, 100 mg/kg, 9 h, tissue Blood, route gavage, dose level Low
QUANTITY_MEASURED: WBC

INSERT INTO results (compound, recorded_value) VALUES
  ('O=C(O)c1cn(C2CC2)c2cc(N3CCNCC3)c(F)cc2c1=O [CIPROFLOXACIN]', '77 x10_2/uL'),
  ('O=C(O)c1cc(/N=N/c2ccc(S(=O)(=O)Nc3ccccn3)cc2)ccc1O [SULFASALAZINE]', '76.6 x10_2/uL'),
  ('Clc1ccccc1CN1CCc2sccc2C1 [TICLOPIDINE]', '81 x10_2/uL'),
  ('CCc1cc(C(N)=S)ccn1 [ETHIONAMIDE]', '79.2 x10_2/uL');

###

// values below are reported Ht
organism: Rattus norvegicus; assay: Open TG-GATES - Regimen: Daily Repeat; type: toxicity, organism-based, Sprague-Dawley; set-up: regimen Daily Repeat, gender Male, age 6 weeks; settings: in vivo, po, 0 mg/kg, […], tissue Blood, route gavage, dose level Control, time 7 day
QUANTITY_MEASURED: Ht

INSERT INTO measurements (molecule, recorded_value) VALUES
  ('CN(C)CCC=C1c2ccccc2CCc2ccccc21 [AMITRIPTYLINE]', '40.7%'),
  ('COc1ccc(Cc2nccc3cc(OC)c(OC)cc23)cc1OC [PAPAVERINE]', '40.3%'),
  ('Cn1c(=O)c2[nH]cnc2n(C)c1=O.O [THEOPHYLLINE]', '40.5%'),
  ('CSc1ccc2c(c1)N(CCC1CCCCN1C)c1ccccc1S2 (stereo not drawn) [THIORIDAZINE]', '41.7%'),
  ('NC(=O)N1c2ccccc2C=Cc2ccccc21 [CARBAMAZEPINE]', '40.8%'),
  ('CO[C@H]1/C=C/O[C@@]2(C)Oc3c(C)c(O)c4c(O)c(c(/C=N/N5CCN(C)CC5)c(O)c4c3C2=O)NC(=O)/C(C)=C\C=C\[C@H](C)[C@H](O)[C@@H](C)[C@@H](O)[C@@H](C)[C@H](OC(C)=O)[C@@H]1C [RIFAMPIN]', '42.8%'),
  ('C[C@H](CS)C(=O)N1CCC[C@H]1C(=O)O [CAPTOPRIL]', '41.7%'),
  ('O=C(O)c1cc(/N=N/c2ccc(S(=O)(=O)Nc3ccccn3)cc2)ccc1O [SULFASALAZINE]', '41.1%');

###

// values below are reported TP
organism: Rattus norvegicus; assay: Open TG-GATES - Regimen: Single; assay type: toxicity, organism-based, Sprague-Dawley; set-up: regimen Single, gender Male, age 6 weeks; details: in vivo, po, 100 mg/kg, 6 h, tissue Plasma, route gavage, dose level Low
QUANTITY_MEASURED: TP (g/dL)

INSERT INTO measurements (compound, recorded_value) VALUES
  ('Clc1ccccc1CN1CCc2sccc2C1', 5.5),
  ('O=C(O)c1cc(/N=N/c2ccc(S(=O)(=O)Nc3ccccn3)cc2)ccc1O', 5.4),
  ('C[C@H](CS)C(=O)N1CCC[C@H]1C(=O)O', 5.3),
  ('CCc1cc(C(N)=S)ccn1 [ETHIONAMIDE]', 5.5),
  ('O=C(O)c1cn(C2CC2)c2cc(N3CCNCC3)c(F)cc2c1=O', 5.6);
